Target: thrombin (Homo sapiens (Human), UniProt P00734)
Test: Thrombin-inhibitory activity in plasma samples (ecarin-activated)
Format: biochemical
Details: citrate plasma, prothrombinase activated by ecarin, fluorogenic thrombin substrate; in some cases means; read-out: IC50 [nM] thrombin inhibition in plasma samples
Decision: IC50 beneath 10 nM gives Criterion met; IC50 meeting or exceeding 10 nM gives Criterion not met.

{"columns": ["compound", "target-entity", "class"],
 "data": [
  ["COc1cc(C(=O)N2CC3CCN3C(=O)C2C)cc2nc(NC(CF)c3cccc(Cl)c3)oc12 (single isomer, unassigned) [Example 23]", "thrombin (Homo sapiens (Human), UniProt P00734)", "Criterion met"],
  ["COc1cc(C(=O)N2CCC(O)C(C)C2)cc2nc(NC(CF)c3cccc(Cl)c3)oc12 (single isomer, unassigned) [Example 2]", "thrombin (Homo sapiens (Human), UniProt P00734)", "Criterion not met"],
  ["COc1cc(C(=O)N2CC3(CC3)NC(=O)C2C)cc2nc(NC(CF)c3cccc(Cl)c3)oc12 (single isomer, unassigned) [Example 33]", "thrombin (Homo sapiens (Human), UniProt P00734)", "Criterion met"],
  ["COc1cc(C(=O)N2CCC(O)C(C)C2)cc2nc(NC(CF)c3cccc(Cl)c3)oc12 (stereo not shown) [Example 1]", "thrombin (Homo sapiens (Human), UniProt P00734)", "Criterion not met"],
  ["COc1cc(C(=O)N2CCC(O)C(C)C2)cc2nc(NC(CF)c3cccc(Cl)c3)oc12 (single isomer, unassigned) [Example 3]", "thrombin (Homo sapiens (Human), UniProt P00734)", "Criterion not met"],
  ["COc1cc(C(=O)N2CC(C)(CCO)OC[C@H]2C)cc2nc(NC(CF)c3cccc(Cl)c3)oc12 (single isomer, unassigned) [Example 10]", "thrombin (Homo sapiens (Human), UniProt P00734)", "Criterion not met"],
  ["CCO[C@@H]1CC(CO)N(C(=O)c2cc(OC)c3oc(NC(CF)c4cccc(Cl)c4)nc3c2)C1 (single isomer, unassigned) [Example 27]", "thrombin (Homo sapiens (Human), UniProt P00734)", "Criterion met"]
]}
